# Tgt: UniProt:Q6PRC7
# Sequence (Q6PRC7 whole entry): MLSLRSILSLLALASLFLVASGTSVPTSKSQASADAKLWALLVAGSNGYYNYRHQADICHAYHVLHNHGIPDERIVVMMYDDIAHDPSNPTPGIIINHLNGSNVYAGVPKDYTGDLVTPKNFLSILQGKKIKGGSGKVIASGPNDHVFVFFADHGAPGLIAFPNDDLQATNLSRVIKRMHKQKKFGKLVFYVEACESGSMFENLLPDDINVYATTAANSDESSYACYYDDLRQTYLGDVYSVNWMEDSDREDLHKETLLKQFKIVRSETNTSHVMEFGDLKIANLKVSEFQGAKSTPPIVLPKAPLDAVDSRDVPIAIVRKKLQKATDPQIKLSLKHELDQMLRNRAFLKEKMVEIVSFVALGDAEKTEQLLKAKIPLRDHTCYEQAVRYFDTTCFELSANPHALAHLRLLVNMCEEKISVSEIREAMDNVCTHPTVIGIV
# Assay Details: Inhibition of Ixodes ricinus asparaginyl endopeptidases
# Condition Summary: read-out: IC50
Recorded Endpoint: pIC50
Recall that pIC50 is obtained by taking minus log10 of the concentration measured in molar.

Param readout= pIC50; system= UniProt:Q6PRC7; entry= CCOC(=O)/C=C/C(=O)N(CC(N)=O)NC(=O)[C@H](C)NC(=O)[C@@H](C)NC(=O)N1CCCCC1 ; returns value.
7.82

Param readout= pIC50; system= UniProt:Q6PRC7; entry= CCOC(=O)/C=C/C(=O)N(CC(N)=O)NC(=O)[C@@H](NC(=O)[C@@H](C)NC(=O)OCc1ccccc1)C(C)C ; returns value.
7.19

Param readout= pIC50; system= UniProt:Q6PRC7; entry= CCOC(=O)/C=C/C(=O)N(CC(N)=O)NC(=O)OC(C)(C)C ; returns value.
6.12

Param readout= pIC50; system= UniProt:Q6PRC7; entry= CCOC(=O)/C=C/C(=O)N(CC(N)=O)NC(=O)[C@H](C)NC(=O)[C@@H](C)NC(=O)N1CCN(C(=O)OCc2ccccc2)CC1 ; returns value.
9.85

Param readout= pIC50; system= UniProt:Q6PRC7; entry= CC(NC(=O)N1CCCCC1)C(=O)N[C@@H](C)C(=O)NN(CC(N)=O)C(=O)[C@H]1O[C@@H]1C(=O)NCc1cccc2ccccc12 (single isomer, unassigned) ; returns value.
8.07

Param readout= pIC50; system= UniProt:Q6PRC7; entry= C[C@H](NC(=O)[C@@H](C)NC(=O)N1CCNCC1)C(=O)NN(CC(N)=O)C(=O)/C=C/C(=O)N(Cc1cccc2ccccc12)Cc1cccc2ccccc12 (relative stereo) ; returns value.
8.59

Okay, now this molecule:
Param readout= pIC50; system= UniProt:Q6PRC7; entry= CCOC(=O)[C@H]1O[C@@H]1C(=O)N(CC(N)=O)NC(=O)[C@H](C)NC(=O)C(C)NC(=O)N1CCCCC1 (single isomer, unassigned) ; returns value.
7.52
